Origin of measurements: ChEMBL document CHEMBL4257493

target: 5-hydroxytryptamine receptor 1D (Homo sapiens, UniProt P28221)
Sequence (P28221 whole entry): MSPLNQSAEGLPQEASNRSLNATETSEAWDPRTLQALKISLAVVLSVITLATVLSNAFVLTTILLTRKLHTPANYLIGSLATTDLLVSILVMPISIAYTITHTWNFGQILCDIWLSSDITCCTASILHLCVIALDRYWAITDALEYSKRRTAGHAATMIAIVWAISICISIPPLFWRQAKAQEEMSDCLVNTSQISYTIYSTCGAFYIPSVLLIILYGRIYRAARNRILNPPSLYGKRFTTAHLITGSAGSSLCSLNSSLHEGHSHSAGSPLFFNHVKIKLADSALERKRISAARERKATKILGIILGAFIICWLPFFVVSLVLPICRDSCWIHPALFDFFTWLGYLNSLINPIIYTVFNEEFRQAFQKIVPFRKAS
readout.label: Ki (µM)
Give the value, in units of µM, as a plain number.

Write down the reported Ki (system: 5-hydroxytryptamine receptor 1D (Homo sapiens, UniProt P28221)) of COc1cc2c3c(c1OC)-c1ccccc1[C@@H](O)[C@@H]3NCC2
0.857

====

target: UniProt P07550; test: Antagonist activity at human beta2-adrenergic receptor expressed in CHO-K1 cells assessed as decrease in procaterol-induced cAMP accumulation after 20 mins by HTRF assay; assay type: functional, cell-based
Sequence (P07550 whole entry): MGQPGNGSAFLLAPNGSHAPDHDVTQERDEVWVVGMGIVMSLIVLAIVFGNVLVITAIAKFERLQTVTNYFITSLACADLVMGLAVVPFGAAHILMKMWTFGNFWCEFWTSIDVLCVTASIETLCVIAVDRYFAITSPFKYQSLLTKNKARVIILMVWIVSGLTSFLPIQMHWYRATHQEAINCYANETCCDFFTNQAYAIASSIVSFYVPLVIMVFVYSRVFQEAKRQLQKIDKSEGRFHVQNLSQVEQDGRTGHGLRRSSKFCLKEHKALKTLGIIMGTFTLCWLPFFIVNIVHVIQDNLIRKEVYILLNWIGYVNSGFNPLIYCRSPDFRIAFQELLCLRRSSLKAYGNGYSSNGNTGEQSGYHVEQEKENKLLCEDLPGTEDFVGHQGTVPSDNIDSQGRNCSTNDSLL
readout.label: pIC50
Conceptually, pIC50 converts a concentration in mol/L into minus its log10.

Supply pIC50 value. Item: COc1cc2c3c(c1OC)-c1ccccc1[C@@H](O)[C@@H]3NCC2
8.16
